- Experimental System: 5-hydroxytryptamine receptor 1A (Homo sapiens)
- Sequence (P08908 whole entry): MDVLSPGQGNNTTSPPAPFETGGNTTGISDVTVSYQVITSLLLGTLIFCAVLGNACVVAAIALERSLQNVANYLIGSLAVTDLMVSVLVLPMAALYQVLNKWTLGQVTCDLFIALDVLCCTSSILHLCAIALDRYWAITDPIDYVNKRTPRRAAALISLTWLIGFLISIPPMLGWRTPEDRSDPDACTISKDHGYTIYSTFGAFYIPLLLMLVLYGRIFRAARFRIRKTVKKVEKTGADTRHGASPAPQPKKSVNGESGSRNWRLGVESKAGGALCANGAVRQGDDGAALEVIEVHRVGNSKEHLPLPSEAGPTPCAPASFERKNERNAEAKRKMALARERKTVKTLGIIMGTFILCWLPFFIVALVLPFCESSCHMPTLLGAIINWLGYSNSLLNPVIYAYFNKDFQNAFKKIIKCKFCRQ
- Protocol Text: Displacement of [3H]8-OH-DPAT from recombinant human 5-HT1A receptor expressed in HEK293 cell membranes after 60 mins by TopCount scintillation counting method
Classification scheme (Ki): low-valued: < 8 nM; mid-valued: ≥ 8 nM and < 20 nM; high-valued: ≥ 20 nM

Below, 5 compounds whose answers are already recorded.
Chemical String: Fc1ccc2[nH]cc(CCN3CCN(c4ccccc4-c4ccccc4F)CC3)c2c1
Class: high-valued
//
Chemical String: Fc1ccc2[nH]cc(CCCN3CCN(c4ccccc4-c4ccccc4)CC3)c2c1
Class: mid-valued
//
Chemical String: Fc1cccc(-c2c(F)cccc2N2CCN(CCCc3c[nH]c4ccc(F)cc34)CC2)c1
Class: mid-valued
//
Chemical String: Fc1cccc(-c2ccccc2N2CCN(CCc3c[nH]c4ccc(F)cc34)CC2)c1
Class: low-valued
//
Chemical String: Fc1cccc(-c2cc(F)ccc2N2CCN(CCCc3c[nH]c4ccc(F)cc34)CC2)c1
Class: high-valued

Data request: Lab log: Fc1cccc(-c2ccc(F)cc2N2CCN(CCCc3c[nH]c4ccc(F)cc34)CC2)c1 — assign Ki category
Data returned: mid-valued

Data request: Lab log: Fc1ccc2[nH]cc(CCN3CCN(c4ccccc4-c4ccccc4)CC3)c2c1 — assign Ki category
Data returned: low-valued

Data request: Lab log: Fc1ccc(N2CCN(CCCc3c[nH]c4ccc(F)cc34)CC2)c(-c2ccccc2)c1 — assign Ki category
Data returned: high-valued
